- experimental.target: T1, CD79b endogenously expressed on the cell surface (malignant B cell lines, normal B cells in PBMC, CLL … (human, UniProt P40259 29-229))
- T1 construct: whole, on cells; On cells CD79b stands in the B-cell receptor complex with CD79a and surface Ig; also called cell surface CD79b; endogenous CD79b
- T1 sequence (looked up): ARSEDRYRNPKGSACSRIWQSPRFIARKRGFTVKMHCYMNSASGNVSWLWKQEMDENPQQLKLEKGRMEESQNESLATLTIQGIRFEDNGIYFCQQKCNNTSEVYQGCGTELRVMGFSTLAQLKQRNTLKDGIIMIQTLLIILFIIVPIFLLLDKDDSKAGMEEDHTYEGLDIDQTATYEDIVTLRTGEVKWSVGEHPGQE
- assay.notes: flow cytometry on Daudi cells; anti-human IgG1-PE; MFI (PE); table under the graph
Reported EC50 values follow for various binders
Kindly answer with a numeric value in nM, unit omitted.

Example binders with recorded EC50:
ch57B9 (antibody, human IgG1, kappa, V domains shown, Rabbit/human chimeric IgG1 kappa; also called chimeric 57B9) VH: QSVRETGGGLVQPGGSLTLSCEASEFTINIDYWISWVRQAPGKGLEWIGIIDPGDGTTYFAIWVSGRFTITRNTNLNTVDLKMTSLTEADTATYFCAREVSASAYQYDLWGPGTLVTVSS VL: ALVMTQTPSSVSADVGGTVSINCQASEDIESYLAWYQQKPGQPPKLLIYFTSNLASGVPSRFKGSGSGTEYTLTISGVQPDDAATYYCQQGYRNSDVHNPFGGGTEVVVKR ... 1.22
ch48H10 (antibody, human IgG1, kappa, V domains shown, Rabbit/human chimeric IgG1 kappa; also called chimeric 48H10) VH: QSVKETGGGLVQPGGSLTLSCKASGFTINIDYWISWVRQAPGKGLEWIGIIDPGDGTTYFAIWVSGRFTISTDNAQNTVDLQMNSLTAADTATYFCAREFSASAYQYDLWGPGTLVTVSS VL: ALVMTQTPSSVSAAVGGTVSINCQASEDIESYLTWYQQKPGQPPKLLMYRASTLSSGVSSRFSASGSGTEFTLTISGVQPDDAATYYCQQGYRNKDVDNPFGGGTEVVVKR ... 1.38
ch22D10 (antibody, human IgG1, kappa, V domains shown, Rabbit/human chimeric IgG1 kappa; also called chimeric 22D10) VH: QSVEESGGRLVTPGTPLTLTCTASGFTINDYHMNWVRQAPGKGLEWIGIISSNGDTYYASWAKGRFTISRTSTTVDLKMTSLTTEDTATYFCARDDRDRSYAFDPWGPGTLVTVSS VL: ALVMTQTPSSVSAAVGGTVTINCRASEDIERYLAWYQQKPGQRPKLLIYGASTLASGVPSRFKGSGSGTEYTLTISGVQPDDAATYYCHQGDSSRNVVNVFGGGTEVVVKR ... 0.24
ch44G2 (antibody, human IgG1, kappa, V domains shown, Rabbit/human chimeric IgG1 kappa; also called chimeric 44G2) VH: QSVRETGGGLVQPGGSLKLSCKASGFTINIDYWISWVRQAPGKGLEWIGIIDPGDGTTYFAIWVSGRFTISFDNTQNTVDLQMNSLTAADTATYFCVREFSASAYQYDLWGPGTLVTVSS VL: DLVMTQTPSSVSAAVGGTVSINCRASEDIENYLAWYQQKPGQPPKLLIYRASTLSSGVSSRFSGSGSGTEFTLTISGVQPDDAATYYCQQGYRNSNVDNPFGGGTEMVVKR ... 0.79
polatuzumab (antibody, V domains shown) VH: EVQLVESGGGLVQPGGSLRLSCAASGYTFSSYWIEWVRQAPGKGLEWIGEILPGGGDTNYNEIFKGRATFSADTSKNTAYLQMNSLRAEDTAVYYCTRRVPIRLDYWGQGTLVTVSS VL: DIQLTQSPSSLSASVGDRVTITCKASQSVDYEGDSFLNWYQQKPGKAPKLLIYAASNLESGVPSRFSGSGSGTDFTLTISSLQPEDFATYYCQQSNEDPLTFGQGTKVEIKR ... 2.24

// next item, EC50 requested
binder ch23D8 (antibody, human IgG1, kappa, V domains shown, Rabbit/human chimeric IgG1 kappa; also called chimeric 23D8) VH: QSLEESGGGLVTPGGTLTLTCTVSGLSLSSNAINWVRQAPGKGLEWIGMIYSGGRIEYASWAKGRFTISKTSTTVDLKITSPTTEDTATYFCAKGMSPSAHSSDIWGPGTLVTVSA VL: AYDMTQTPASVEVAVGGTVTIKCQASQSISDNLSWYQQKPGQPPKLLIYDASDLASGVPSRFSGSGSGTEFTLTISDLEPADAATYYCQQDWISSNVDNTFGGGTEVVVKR , EC50 observed: 1.08
